// values below are reported pEC50
Molecular target: T1, mouse MET ECD (mouse, UniProt P16056 25-931)
T1 construct: range 1-931; recombinant ECD made by the applicants; the stated range begins at residue 1; also called mMET; mMET ECD
T1 sequence (P16056 25-931 limits assumed, form in doubt): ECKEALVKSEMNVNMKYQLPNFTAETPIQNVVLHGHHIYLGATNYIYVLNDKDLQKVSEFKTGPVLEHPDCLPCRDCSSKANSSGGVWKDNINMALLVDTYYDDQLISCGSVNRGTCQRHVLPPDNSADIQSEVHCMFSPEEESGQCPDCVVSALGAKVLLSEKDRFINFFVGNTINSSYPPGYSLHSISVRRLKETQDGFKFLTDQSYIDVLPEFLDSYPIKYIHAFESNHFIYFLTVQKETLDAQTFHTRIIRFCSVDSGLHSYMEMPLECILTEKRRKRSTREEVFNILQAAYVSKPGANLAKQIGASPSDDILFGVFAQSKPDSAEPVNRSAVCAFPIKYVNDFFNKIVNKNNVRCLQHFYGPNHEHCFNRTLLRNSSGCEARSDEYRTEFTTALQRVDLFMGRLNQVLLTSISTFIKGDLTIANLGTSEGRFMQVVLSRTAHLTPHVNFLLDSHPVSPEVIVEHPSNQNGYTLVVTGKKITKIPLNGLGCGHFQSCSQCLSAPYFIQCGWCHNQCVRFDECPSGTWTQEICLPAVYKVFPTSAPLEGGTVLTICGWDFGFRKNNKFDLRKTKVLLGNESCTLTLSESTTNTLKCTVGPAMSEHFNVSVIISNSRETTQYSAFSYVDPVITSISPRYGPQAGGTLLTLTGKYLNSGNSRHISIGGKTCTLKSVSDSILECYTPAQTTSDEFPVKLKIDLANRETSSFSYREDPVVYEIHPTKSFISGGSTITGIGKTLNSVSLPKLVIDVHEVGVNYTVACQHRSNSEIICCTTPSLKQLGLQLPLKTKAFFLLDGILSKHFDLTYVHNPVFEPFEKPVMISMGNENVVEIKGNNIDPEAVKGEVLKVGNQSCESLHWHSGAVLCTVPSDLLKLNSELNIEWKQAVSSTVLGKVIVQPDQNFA
Assay: ELISA, MET ECD in solid phase, mAb 0-20 nM
Experimental: Production (by transient transfection of mammalian cells) and purification (by protein A affinity chromatography) of the resulting chimeric llama-human IgG1 molecules was outsourced to U-protein Express. Binding of chimeric mAbs to MET was determined by ELISA using hMET or mMET ECD in solid phase and increasing concentrations of antibodies (0-20 nM) in solution. […]
Expect pEC50 as a plain number equal to -log10 of the molar concentration.

These recorded examples may help you get a feel for the data.
INSERT INTO assay_data (binder, measured_quantity, endpoint_value) VALUES
  ('71D6 chimeric llama-human IgG1 mAb (antibody, V domains shown, llama VH on human IgG1 CH1-CH2-CH3, llama VL on human lambda CL) VH: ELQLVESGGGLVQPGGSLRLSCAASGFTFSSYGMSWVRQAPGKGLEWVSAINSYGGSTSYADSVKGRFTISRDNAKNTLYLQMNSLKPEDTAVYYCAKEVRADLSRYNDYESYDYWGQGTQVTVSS VL: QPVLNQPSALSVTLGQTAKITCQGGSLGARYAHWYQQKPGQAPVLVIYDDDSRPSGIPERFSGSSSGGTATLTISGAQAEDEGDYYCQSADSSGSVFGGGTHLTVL', 'pEC50', 10.31),
  ('71C3 chimeric llama-human IgG1 mAb (antibody, V domains shown, llama VH on human IgG1 CH1-CH2-CH3, llama VL on human lambda CL) VH: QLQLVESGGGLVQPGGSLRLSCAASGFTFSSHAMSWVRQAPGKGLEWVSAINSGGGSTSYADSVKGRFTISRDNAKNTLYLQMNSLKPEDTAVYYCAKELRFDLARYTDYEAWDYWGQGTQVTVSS VL: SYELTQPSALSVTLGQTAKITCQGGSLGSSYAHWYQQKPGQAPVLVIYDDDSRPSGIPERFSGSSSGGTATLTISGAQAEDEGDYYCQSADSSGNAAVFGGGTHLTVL', 'pEC50', 9.53),
  ('76H10 chimeric llama-human IgG1 mAb (antibody, V domains shown, llama VH on human IgG1 CH1-CH2-CH3, llama VL on human lambda CL) VH: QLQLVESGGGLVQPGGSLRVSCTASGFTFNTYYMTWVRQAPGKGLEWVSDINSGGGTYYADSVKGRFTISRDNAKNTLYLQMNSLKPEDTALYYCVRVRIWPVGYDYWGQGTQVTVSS VL: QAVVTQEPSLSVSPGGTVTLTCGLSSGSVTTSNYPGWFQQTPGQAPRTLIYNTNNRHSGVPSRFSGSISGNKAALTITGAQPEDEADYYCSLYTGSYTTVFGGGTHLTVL', 'pEC50', 10.21);

-- ask What pEC50 value was documented for this binder, 76G7 chimeric llama-human IgG1 mAb (antibody, V domains shown, llama VH on human IgG1 CH1-CH2-CH3, llama VL on human lambda CL) VH: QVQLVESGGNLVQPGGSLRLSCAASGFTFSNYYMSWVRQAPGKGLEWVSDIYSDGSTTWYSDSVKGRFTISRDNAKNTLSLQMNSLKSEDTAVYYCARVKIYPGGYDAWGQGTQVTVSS VL: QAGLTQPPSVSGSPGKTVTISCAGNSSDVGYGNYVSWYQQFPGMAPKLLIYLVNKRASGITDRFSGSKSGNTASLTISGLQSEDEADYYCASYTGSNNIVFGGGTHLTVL ?
-- reply 9.99

-- ask Which pEC50 is reported for this binder? 71G2 chimeric llama-human IgG1 mAb (antibody, V domains shown, llama VH on human IgG1 CH1-CH2-CH3, llama VL on human lambda CL) VH: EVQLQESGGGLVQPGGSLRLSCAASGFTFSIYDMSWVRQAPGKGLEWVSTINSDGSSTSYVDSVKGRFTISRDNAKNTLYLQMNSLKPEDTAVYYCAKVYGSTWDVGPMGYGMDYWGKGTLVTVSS VL: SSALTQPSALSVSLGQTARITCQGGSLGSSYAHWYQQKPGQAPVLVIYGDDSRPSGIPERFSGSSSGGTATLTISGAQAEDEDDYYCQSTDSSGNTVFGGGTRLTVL
-- reply 10.00
